# subject-of-test: Secreted chorismate mutase (Mycobacterium tuberculosis)
# Sequence (whole entry): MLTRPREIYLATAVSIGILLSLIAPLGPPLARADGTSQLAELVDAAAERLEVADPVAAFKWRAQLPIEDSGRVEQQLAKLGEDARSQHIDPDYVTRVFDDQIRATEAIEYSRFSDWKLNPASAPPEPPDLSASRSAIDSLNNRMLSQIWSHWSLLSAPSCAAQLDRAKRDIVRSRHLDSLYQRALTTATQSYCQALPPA
# protocol-details: Inhibition of Mycobacterium tuberculosis chorismate mutase expressed in Escherichia coli BL21 assessed as conversion of chorismate to prephenate at 50 uM after 5 mins by Spectrophotometry
The entries below are paired with their reported inhibition.
recorded-metric: inhibition

>>> result("Oc1ccc2ccccc2c1-c1nc2ccccc2nc1-c1c[nH]c2ccc(Br)cc12")
"35%"
>>> result("Oc1ccc(-c2nc3ccccc3nc2Cl)c2ccccc12")
"35%"
>>> result("COc1ccc2c(-c3nc4ccccc4nc3-c3c[nH]c4ccccc34)c[nH]c2c1")
"45%"
>>> result("Fc1cc2[nH]cc(-c3nc4ccccc4nc3Cl)c2cc1F")
"64%"

====

# subject-of-test: Secreted chorismate mutase (Mycobacterium tuberculosis)
# Sequence (whole entry): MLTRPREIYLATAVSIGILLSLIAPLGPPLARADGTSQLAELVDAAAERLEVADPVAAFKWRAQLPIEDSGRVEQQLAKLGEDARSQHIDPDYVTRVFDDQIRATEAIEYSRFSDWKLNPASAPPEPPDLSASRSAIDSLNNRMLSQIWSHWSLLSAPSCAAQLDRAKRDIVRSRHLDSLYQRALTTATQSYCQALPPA
# protocol-details: Inhibition of Mycobacterium tuberculosis chorismate mutase expressed in Escherichia coli BL21 assessed as conversion of chorismate to prephenate at 50 uM after 5 mins by Spectrophotometry
recorded-metric: inhibition

>>> result("Fc1cc2[nH]cc(-c3nc4ccccc4nc3-c3c[nH]c4ccc(Br)cc34)c2cc1F")
"27%"
>>> result("Oc1ccc(-c2nc3ccccc3nc2Cl)c(O)c1")
"31%"
>>> result("COc1ccc2c(-c3nc4ccccc4nc3Cl)c[nH]c2c1")
"42%"
>>> result("Oc1ccc(-c2nc3ccccc3nc2-c2c[nH]c3ccc(Br)cc23)c(O)c1")
"21%"
>>> result("Brc1ccc2[nH]cc(-c3nc4ccccc4nc3-c3c[nH]c4ccccc34)c2c1")
"31%"
>>> result("COc1ccc2[nH]cc(-c3nc4ccccc4nc3Cl)c2c1")
"36%"

====

# subject-of-test: Secreted chorismate mutase (Mycobacterium tuberculosis)
# Sequence (P9WIB9 whole entry): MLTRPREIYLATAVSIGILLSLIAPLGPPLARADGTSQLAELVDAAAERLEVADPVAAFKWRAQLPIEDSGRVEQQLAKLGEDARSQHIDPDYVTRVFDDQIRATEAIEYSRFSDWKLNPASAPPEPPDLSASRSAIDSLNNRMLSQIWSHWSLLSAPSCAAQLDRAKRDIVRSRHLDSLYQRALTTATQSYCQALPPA
# protocol-details: Inhibition of Mycobacterium tuberculosis chorismate mutase expressed in Escherichia coli BL21 assessed as conversion of chorismate to prephenate after 5 mins by Spectrophotometry
recorded-metric: IC50 (µM)

>>> numeric_readout("Fc1cc2[nH]cc(-c3nc4ccccc4nc3Cl)c2cc1F")
19.7
